- measurement-target: Broad substrate specificity ATP-binding cassette transporter ABCG2 (Homo sapiens)
- Sequence (Q9UNQ0 whole entry): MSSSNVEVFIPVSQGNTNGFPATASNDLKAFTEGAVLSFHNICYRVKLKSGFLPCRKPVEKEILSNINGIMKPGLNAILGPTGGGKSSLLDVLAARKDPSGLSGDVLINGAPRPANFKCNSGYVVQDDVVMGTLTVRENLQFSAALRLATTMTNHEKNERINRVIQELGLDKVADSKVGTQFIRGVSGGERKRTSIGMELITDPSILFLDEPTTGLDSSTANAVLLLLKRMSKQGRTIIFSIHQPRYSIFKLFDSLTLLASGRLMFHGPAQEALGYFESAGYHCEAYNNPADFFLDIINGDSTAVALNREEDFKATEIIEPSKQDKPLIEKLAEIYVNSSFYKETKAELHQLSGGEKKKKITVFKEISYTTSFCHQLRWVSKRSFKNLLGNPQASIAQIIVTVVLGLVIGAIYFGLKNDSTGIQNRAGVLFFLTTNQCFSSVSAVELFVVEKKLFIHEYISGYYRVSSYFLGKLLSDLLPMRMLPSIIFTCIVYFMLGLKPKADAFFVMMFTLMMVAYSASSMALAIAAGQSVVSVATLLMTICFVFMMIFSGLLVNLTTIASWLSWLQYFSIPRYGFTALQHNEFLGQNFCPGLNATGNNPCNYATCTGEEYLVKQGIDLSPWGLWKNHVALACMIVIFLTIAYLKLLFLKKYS
- protocol-description: Inhibition of human ABCG2 expressed in MDCK2 cells assessed as reduction in Hoechst 33342 efflux pre-incubated for 30 mins before Hoechst 33342 addition and measured for 120 mins by microplate reader analysis
- Format: cell-based
- assay-setup: read-out: IC50
pIC50: −log10 of the molar value.
value-kind: pIC50

# compound, value-kind, result-value
records = [
    ("O=C(c1ccccc1)N1CCc2c([nH]c3ccccc23)C1c1ccc(Cl)cc1 (configuration not stated)", "pIC50", 6.13),
    ("COc1ccc(C(=O)N2CCc3c([nH]c4ccccc34)C2c2cccc(OC)c2)cc1 (configuration not stated)", "pIC50", 5.84),
    ("COc1ccc(C(=O)N2CCc3c([nH]c4ccccc34)C2c2ccc(F)c(F)c2)cc1 (configuration not stated)", "pIC50", 6.09),
    ("Cc1ccc(C2c3[nH]c4ccccc4c3CCN2C(=O)c2ccccc2)cc1 (configuration not stated)", "pIC50", 5.84),
]

A: COc1ccc(C(=O)N2CCc3c([nH]c4ccccc34)C2c2ccc(F)c(F)c2)cc1OC (configuration not stated)
B: O=C(c1ccccc1)N1CCc2c([nH]c3ccccc23)C1c1ccccc1F (configuration not stated)
C: COc1ccc(C2c3[nH]c4ccccc4c3CCN2C(=O)c2ccccc2)cc1 (configuration not stated)
Order the entries by their reported pIC50, beginning at the minimum. Present the labels in the sequence the task asks for. B, C, A
(B: 5.35, C: 5.66, A: 5.96)
